system: 282377-053-R-J1-PDC complex spheroid viability; experiment: Anticancer human tumor 282377-053-R-J1-PDC patient-derived colon adenocarcinoma cell line growth inhibition [POLQ]; conditions: second compound 3.16 µM; first compound 0.316 µM; hits give low values
Measured viability, T/C values are reported for all entries that follow.
readoutType: viability, T/C (%)

C=CC(=O)N1CCN(c2nc(=O)n(-c3c(C)ccnc3C(C)C)c3nc(-c4c(O)cccc4F)c(F)cc23)C(C)C1 (stereo unspecified) + Cc1cccc(N(C)C(=O)C2C(O)CCN2c2nc(C)cc(C(F)(F)F)c2C#N)c1 = 71.9
COc1ccc([C@@H](O)c2cc(-c3ncnc4cc(N5CCOCC5)ccc34)c(F)cc2Cl)nn1 + COC1C(OC(N)=O)C(O)C(Oc2ccc3c(O)c(NC(=O)c4ccc(O)c(CC=C(C)C)c4)c(=O)oc3c2C)OC1(C)C = 90.7
CNCc1ccc(-c2[nH]c3cc(F)cc4c3c2CCNC4=O)cc1 + Nc1ccc(C#CCN(C(=O)Cc2ncc(C(F)(F)F)cc2C(F)(F)F)c2ccc(F)cc2)nn1 = 127
CCc1cc2c(N3CCc4c(cc(Cn5ccnc5)cc4-c4cn(C)nc4C(F)(F)F)C3=O)cc(C)nc2c(OC)n1 + Nc1ccc(C#CCN(C(=O)Cc2ncc(C(F)(F)F)cc2C(F)(F)F)c2ccc(F)cc2)nn1 = 85
CCc1cc2c(N3CCc4c(cc(Cn5ccnc5)cc4-c4cn(C)nc4C(F)(F)F)C3=O)ccnc2c(OC)n1 + COC1C(OC(N)=O)C(O)C(Oc2ccc3c(O)c(NC(=O)c4ccc(O)c(CC=C(C)C)c4)c(=O)oc3c2C)OC1(C)C = 150
O=C(Nc1ccc(O)c(NS(=O)(=O)c2ccc(F)cc2)c1)c1ccc(-c2ccccc2)cc1 + Cc1cccc(N(C)C(=O)C2C(O)CCN2c2nc(C)cc(C(F)(F)F)c2C#N)c1 = 104
O=C(Nc1ccc(O)c(NS(=O)(=O)c2ccc(F)cc2)c1)c1ccc(-c2ccccc2)cc1 + Nc1ccc(C#CCN(C(=O)Cc2ncc(C(F)(F)F)cc2C(F)(F)F)c2ccc(F)cc2)nn1 = 103
COc1ccc([C@@H](O)c2cc(-c3ncnc4cc(N5CCOCC5)ccc34)c(F)cc2Cl)nn1 + Cc1cccc(N(C)C(=O)C2C(O)CCN2c2nc(C)cc(C(F)(F)F)c2C#N)c1 = 108
COc1cccc2c1C(=O)c1c(O)c3c(c(O)c1C2=O)CC(O)(C(=O)CO)CC3OC1CC(N)C(O)C(C)O1 (stereo unspecified) + Nc1ccc(C#CCN(C(=O)Cc2ncc(C(F)(F)F)cc2C(F)(F)F)c2ccc(F)cc2)nn1 = 123
CC1COCCN1c1cc(C2(O)CC3CCC(C2)O3)c2cnn(-c3ccn[nH]3)c2n1 (stereo unspecified) + Cc1cccc(N(C)C(=O)C2C(O)CCN2c2nc(C)cc(C(F)(F)F)c2C#N)c1 = 49
Nc1ccn(C2OC(CO)C(O)C2(F)F)c(=O)n1 (stereo unspecified) + Nc1ccc(C#CCN(C(=O)Cc2ncc(C(F)(F)F)cc2C(F)(F)F)c2ccc(F)cc2)nn1 = 117

* * *

test system: 282377-053-R-J1-PDC complex spheroid viability; assay: Anticancer human tumor 282377-053-R-J1-PDC cell line growth inhibition [POLQ]; settings: second compound 10 µM; first compound 0.0316 µM; hits give low values;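 note: spheroids exposed to compounds for seven days; 100% = DMSO vehicle control viability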
readoutType: viability, T/C

Cn1ncnc1[C@H]1c2n[nH]c(=O)c3cc(F)cc(c23)N[C@@H]1c1ccc(F)cc1 + Nc1ccc(C#CCN(C(=O)Cc2ncc(C(F)(F)F)cc2C(F)(F)F)c2ccc(F)cc2)nn1 = 111%
O=c1[nH]cc(F)c(=O)[nH]1 + COC1C(OC(N)=O)C(O)C(Oc2ccc3c(O)c(NC(=O)c4ccc(O)c(CC=C(C)C)c4)c(=O)oc3c2C)OC1(C)C = 105%
COc1cccc(OCCCN)c1-c1cc(Nc2cnc(C#N)cn2)n[nH]1 + Nc1ccc(C#CCN(C(=O)Cc2ncc(C(F)(F)F)cc2C(F)(F)F)c2ccc(F)cc2)nn1 = 99.9%
CCc1cc2c(N3CCc4c(cc(Cn5ccnc5)cc4-c4cn(C)nc4C(F)(F)F)C3=O)cc(C)nc2c(OC)n1 + Cc1cccc(N(C)C(=O)C2C(O)CCN2c2nc(C)cc(C(F)(F)F)c2C#N)c1 = 96.8%
O=c1[nH]cc(F)c(=O)[nH]1 + Cc1cccc(N(C)C(=O)C2C(O)CCN2c2nc(C)cc(C(F)(F)F)c2C#N)c1 = 113%
CC[C@@]1(O)C(=O)OCc2c1cc1n(c2=O)Cc2cc3c(CN(C)C)c(O)ccc3nc2-1 + COC1C(OC(N)=O)C(O)C(Oc2ccc3c(O)c(NC(=O)c4ccc(O)c(CC=C(C)C)c4)c(=O)oc3c2C)OC1(C)C = 102%
